targetOfAssay: human M1 receptor (Homo sapiens, UniProt P11229)
Construct: host or cells: CHO-K1
Sequence (P11229 whole entry): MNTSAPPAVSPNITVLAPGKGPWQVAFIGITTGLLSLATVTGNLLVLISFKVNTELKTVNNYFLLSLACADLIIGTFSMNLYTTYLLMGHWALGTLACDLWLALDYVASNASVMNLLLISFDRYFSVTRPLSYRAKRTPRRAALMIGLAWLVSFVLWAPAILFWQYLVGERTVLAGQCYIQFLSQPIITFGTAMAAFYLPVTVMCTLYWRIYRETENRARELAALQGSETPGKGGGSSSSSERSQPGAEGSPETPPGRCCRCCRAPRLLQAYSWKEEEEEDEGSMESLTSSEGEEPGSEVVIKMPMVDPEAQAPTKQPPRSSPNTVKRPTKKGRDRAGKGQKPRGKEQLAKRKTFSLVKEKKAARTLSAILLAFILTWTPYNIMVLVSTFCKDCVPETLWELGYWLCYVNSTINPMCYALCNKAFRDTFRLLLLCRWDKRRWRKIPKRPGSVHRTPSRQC
experimentDescription: Calcium mobilization assay, CHO-K1 cells stably expressing hM1 (high throughput, FDSS 6000)
Format: cell-based
experimentalSetup: figure legends FIG. 1.0, 1.1; dose response data; read-out: EC50 for hM1
attributeMeasured: EC50 (nM)
Dear colleague, please return just the value in nM, with no unit written.

// assay human M1 receptor (Homo sapiens, UniProt P11229), entry CCOC(=O)N1[C@@H]2CC[C@H]1C[C@H](NCCNC(=O)c1ccccc1)C2 , EC50 value = 1200

----------
targetOfAssay: rat M1 receptor (Rattus norvegicus, UniProt P08482)
Construct: host or cells: CHO-K1
experimentDescription: Calcium mobilization assay, CHO-K1 cells stably expressing rat M1 (low throughput, Flexstation II)
Assay type: cell-based
experimentalSetup: rat M1, agonist-evoked calcium mobilization in CHO-K1 cells; read-out: Potency (EC50)
Task for the reader: assign each of the following compounds its reported log10 EC50.
log10 EC50, µM

The recorded log10 EC50 with rat M1 receptor (Rattus norvegicus, UniProt P08482) for CCOC(=O)N1C2CCC1CC(NCCNC(=O)c1ccc(C)c(F)c1)C2 (stereo not shown) was -0.20

Measured log10 EC50 (rat M1 receptor (Rattus norvegicus, UniProt P08482)), entry CCOC(=O)N1C2CCC1CC(NCCNC(=O)c1cccc(OC)c1)C2 (stereo not shown) : -0.68

Entry CCOC(=O)N1C2CCC1CC(NCCNC(=O)c1ccc(Cl)cc1)C2 (stereo not shown) , tested on rat M1 receptor (Rattus norvegicus, UniProt P08482), has a reported log10 EC50 of 0.03

Assay rat M1 receptor (Rattus norvegicus, UniProt P08482), sample CCOC(=O)N1C2CCC1CC(NCCNC(=O)c1ccc(Cl)c(Cl)c1)C2 (stereo not shown) , log10 EC50 read: 0.01

rat M1 receptor (Rattus norvegicus, UniProt P08482) assay, compound CCOC(=O)N1C2CCC1CC(NCCNC(=O)c1ccccc1Cl)C2 (stereo not shown) , recorded log10 EC50 = -0.95

The value of log10 EC50 recorded for CCOC(=O)N1C2CCC1CC(NCCNC(=O)c1ccc(F)c(C(F)(F)F)c1)C2 (stereo not shown) when tested on rat M1 receptor (Rattus norvegicus, UniProt P08482) reads 0.43

Item CCOC(=O)N1C2CCC1CC(NCCNC(=O)c1cccc(C)c1)C2 (stereo not shown) was tested on rat M1 receptor (Rattus norvegicus, UniProt P08482); the reported log10 EC50 is -0.94

Record CCOC(=O)N1C2CCC1CC(NCCNC(=O)c1ccc(F)c(OC)c1)C2 (stereo not shown) ; system rat M1 receptor (Rattus norvegicus, UniProt P08482); log10 EC50 = 0.16

For the compound CCOC(=O)N1C2CCC1CC(NCCNC(=O)c1c(F)cccc1F)C2 (stereo not shown) , the measured log10 EC50 on rat M1 receptor (Rattus norvegicus, UniProt P08482) was -0.06

rat M1 receptor (Rattus norvegicus, UniProt P08482) data for CCOC(=O)N1C2CCC1CC(NCCNC(=O)c1ccc(F)c(F)c1)C2 (stereo not shown) ; its log10 EC50: -0.91

----------
targetOfAssay: human M1 receptor (Homo sapiens)
Construct: host or cells: CHO-K1
experimentDescription: Calcium mobilization assay, CHO-K1 cells stably expressing hM1 (high throughput, FDSS 6000)
Format: cell-based
experimentalSetup: human M1, agonist-evoked calcium mobilization in CHO-K1 cells; read-out: Potency (EC50)
What EC50 was measured for each of the following?
All answers are understood in µM, so give the number only.

The compound CCOC(=O)N1[C@@H]2CC[C@H]1C[C@H](NCCNC(=O)c1ccc(F)cc1)C2 , tested on human M1 receptor (Homo sapiens), showed EC50 of 1.7

human M1 receptor (Homo sapiens) EC50 of CCOC(=O)N1[C@@H]2CC[C@H]1C[C@H](NCCNC(=O)N1CCOCC1)C2 is 3.6

Entry CCOC(=O)N1[C@@H]2CC[C@H]1C[C@H](NCCNC(=O)c1cccc(Cl)c1)C2 , human M1 receptor (Homo sapiens) data, EC50 value: 0.49

human M1 receptor (Homo sapiens) assay, compound CCOC(=O)N1[C@@H]2CC[C@H]1C[C@@H](NCCNC(=O)c1ccccc1)C2 , recorded EC50 = 0.21

----------
targetOfAssay: hM2 receptor (Homo sapiens, UniProt P08172)
Sequence (P08172 whole entry): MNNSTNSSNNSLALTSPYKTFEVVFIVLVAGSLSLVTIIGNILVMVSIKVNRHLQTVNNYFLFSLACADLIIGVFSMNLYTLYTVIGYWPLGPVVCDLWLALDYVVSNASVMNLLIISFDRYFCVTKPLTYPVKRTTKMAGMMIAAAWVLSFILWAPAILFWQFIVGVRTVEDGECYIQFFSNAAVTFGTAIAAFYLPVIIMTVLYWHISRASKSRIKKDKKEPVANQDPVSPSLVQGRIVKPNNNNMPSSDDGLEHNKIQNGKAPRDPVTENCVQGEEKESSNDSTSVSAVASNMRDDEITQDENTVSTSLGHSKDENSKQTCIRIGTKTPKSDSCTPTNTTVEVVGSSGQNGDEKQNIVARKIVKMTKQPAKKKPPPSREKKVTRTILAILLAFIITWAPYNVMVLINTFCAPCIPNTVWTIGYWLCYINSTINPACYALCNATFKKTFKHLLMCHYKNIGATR
experimentDescription: Calcium mobilization assay, CHO cells stably expressing hM2-Gqi5
attributeMeasured: EC50

// EC50 lookup, molecule = CCOC(=O)N1[C@@H]2CC[C@H]1C[C@H](NCCNC(=O)c1ccccc1)C2 [Example 26] , result: > 10 µM

Entry under test: CCOC(=O)N1[C@@H]2CC[C@H]1C[C@@H](NCCNC(=O)c1ccccc1)C2 [Example 27] . Its EC50 was ~3 µM

----------
I'd appreciate it if you could supply pEC50 values for the items below.
targetOfAssay: human M1 receptor (Homo sapiens, UniProt P11229)
Construct: host or cells: CHO-K1
experimentDescription: Calcium mobilization assay, CHO-K1 cells stably expressing hM1 (high throughput, FDSS 6000)
Format: cell-based
Hey, just a heads up that pEC50 is the negative log base 10 of the concentration in molar.

Per the record, CCOC(=O)N1[C@@H]2CC[C@H]1C[C@H](NCCNC(=O)c1cccs1)C2 [Example 40] has pEC50 of 5.68

The reported pEC50 of the compound CCOC(=O)N1[C@@H]2CC[C@H]1C[C@H](NCCNC(=O)c1ccccc1C)C2 [Example 31] was 5.60

// field: pEC50; key: CCOC(=O)N1[C@@H]2CC[C@H]1C[C@@H](NCCNC(=O)c1ccccc1)C2 [Example 27] ; value = 6.67

----------
targetOfAssay: rat M1 receptor (Rattus norvegicus, UniProt P08482)
Construct: host or cells: CHO-K1
Sequence (P08482 1-460): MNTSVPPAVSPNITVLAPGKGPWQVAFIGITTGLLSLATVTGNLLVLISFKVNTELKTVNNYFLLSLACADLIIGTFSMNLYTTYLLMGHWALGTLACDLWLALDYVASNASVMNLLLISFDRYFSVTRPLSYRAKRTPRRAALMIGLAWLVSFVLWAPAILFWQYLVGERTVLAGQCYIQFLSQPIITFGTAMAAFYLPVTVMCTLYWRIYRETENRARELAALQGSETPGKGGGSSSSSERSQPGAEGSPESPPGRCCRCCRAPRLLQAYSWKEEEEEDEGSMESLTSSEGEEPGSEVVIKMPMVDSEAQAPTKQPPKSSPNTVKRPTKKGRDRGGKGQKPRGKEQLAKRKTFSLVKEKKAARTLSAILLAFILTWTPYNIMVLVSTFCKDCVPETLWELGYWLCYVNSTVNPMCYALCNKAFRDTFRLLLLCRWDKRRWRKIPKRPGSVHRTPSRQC
experimentDescription: Calcium mobilization assay, CHO-K1 cells stably expressing rat M1 (low throughput, Flexstation II)
Type: cell-based
experimentalSetup: CHO-K1, read-out: Efficacy (% Max ACh)
Could you please report measured Emax for the items listed next?
Numbers only; they are read as %.

Value of measured Emax for the entry CCOC(=O)N1C2CCC1CC(NCCNC(=O)Cc1cccs1)C2 (stereo not drawn) : 51

Just so you know, measured Emax for CCOC(=O)N1C2CCC1CC(NCCNC(=O)c1ccc(C)c(F)c1)C2 (stereo not drawn) came out at 50

Lab note: CCOC(=O)N1C2CCC1CC(NCCNC(=O)c1ccc(Cl)c(Cl)c1)C2 (stereo not drawn) gave Emax of 49

----------
targetOfAssay: human M1 receptor (Homo sapiens, UniProt P11229)
Construct: host or cells: CHO-K1
experimentDescription: Calcium mobilization assay, CHO-K1 cells stably expressing hM1 (high throughput, FDSS 6000)
Assay type: cell-based
experimentalSetup: CHO-K1, read-out: Efficacy (% Max ACh)
attributeMeasured: Emax (%)
Respond with the bare value in %.

For record CCOC(=O)N1[C@@H]2CC[C@H]1C[C@H](NCCNC(=O)c1ccccc1C)C2 the listed Emax is 38

Per the records, this molecule ( CCOC(=O)N1[C@@H]2CC[C@H]1C[C@@H](NCCNC(=O)c1ccccc1)C2 ) has Emax equal to 37

Briefly, Emax measured for CCOC(=O)N1[C@@H]2CC[C@H]1C[C@H](NCCNC(=O)c1cc(F)cc(F)c1)C2 : 37

response.value for CCOC(=O)N1[C@@H]2CC[C@H]1C[C@H](NCCNC(=O)N1CCCCC1)C2 (field: Emax) = 46

The molecule listed as CCOC(=O)N1[C@@H]2CC[C@H]1C[C@H](NCCNC(=O)c1cccs1)C2 has a reported Emax of 15

So for CC(C)OC(=O)N1C2CCC1CC(NCCNC(=O)c1ccccc1)C2 (centres unmarked) , the logged Emax turned out to be 7

Emax for CCOC(=O)N1[C@@H]2CC[C@H]1C[C@H](NCCNC(=O)c1cccc(Cl)c1)C2 is 57

Memo: CCOC(=O)N1[C@@H]2CC[C@H]1C[C@H](NCCNC(=O)c1ccccc1Cl)C2 , reported Emax: 25
